Reference source: the supplement of paper PMC10065799

experimental.target: EPHB2 (UniProt P29323)
Sequence (P29323 whole entry, looked up): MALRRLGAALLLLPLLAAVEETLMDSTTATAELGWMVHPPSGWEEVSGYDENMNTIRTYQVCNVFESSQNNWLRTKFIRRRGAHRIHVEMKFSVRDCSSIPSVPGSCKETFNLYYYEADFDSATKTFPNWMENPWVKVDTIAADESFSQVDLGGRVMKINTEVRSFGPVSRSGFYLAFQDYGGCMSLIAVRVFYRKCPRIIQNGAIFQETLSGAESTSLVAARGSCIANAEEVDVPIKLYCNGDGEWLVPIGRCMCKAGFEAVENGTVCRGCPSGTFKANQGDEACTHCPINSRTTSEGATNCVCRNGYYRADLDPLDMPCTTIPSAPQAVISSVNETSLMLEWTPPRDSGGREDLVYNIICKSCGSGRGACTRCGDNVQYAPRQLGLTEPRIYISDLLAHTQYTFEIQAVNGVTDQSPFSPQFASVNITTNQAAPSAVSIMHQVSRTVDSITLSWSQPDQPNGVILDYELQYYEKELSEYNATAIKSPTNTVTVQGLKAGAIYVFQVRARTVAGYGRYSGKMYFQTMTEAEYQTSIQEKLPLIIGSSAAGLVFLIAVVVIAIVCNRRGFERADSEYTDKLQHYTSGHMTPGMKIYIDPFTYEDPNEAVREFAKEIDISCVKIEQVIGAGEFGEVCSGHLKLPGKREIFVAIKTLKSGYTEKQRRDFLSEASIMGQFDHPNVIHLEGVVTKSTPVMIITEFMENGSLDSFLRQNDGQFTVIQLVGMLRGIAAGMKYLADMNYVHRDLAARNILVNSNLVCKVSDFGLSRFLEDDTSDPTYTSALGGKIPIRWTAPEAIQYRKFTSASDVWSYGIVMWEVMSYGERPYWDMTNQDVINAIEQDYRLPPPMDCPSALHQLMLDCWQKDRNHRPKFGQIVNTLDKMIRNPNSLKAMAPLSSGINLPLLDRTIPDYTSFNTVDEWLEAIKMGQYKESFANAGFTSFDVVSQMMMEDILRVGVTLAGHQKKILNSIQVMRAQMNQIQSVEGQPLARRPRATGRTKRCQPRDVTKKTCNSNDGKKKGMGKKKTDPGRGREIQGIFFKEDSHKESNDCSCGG
procedure.text: phosphorylation enrichment, bacterial display (enrichment ratio); higher = better substrate or ligand; peptides without Tyr show the background;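 also: 11-residue human phosphosite peptides and single-mutation variants displayed on the E. coli surface, counted by deep sequencing, each peptide's frequency after selection divided by its frequency in the unselected input library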;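 also: frequency after pTyr selection over input frequency; kinase dosed for 20-30% of maximal phosphorylation in three min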
assay.endpoint: phosphorylation enrichment
Answer using only a numeral; do not append any unit.

Before answering, review these 2 worked examples.
{"record.sequence": "ADTETYLLEKS [MYH7_Y266_I263T]", "phosphorylation enrichment": 0.586}
{"record.sequence": "FLNSIYKSRDE [ROS1_Y2227]", "phosphorylation enrichment": 0.517}

Lab note: measured phosphorylation enrichment of DGQSVYKLTDF [TBK1_Y153] was 0.37

The recorded phosphorylation enrichment for ILTLKYPIELG [ACTA1_Y71_H75L] is 0.572

Just so you know, measured phosphorylation enrichment for STLEVYRCHPP [IL21R_Y317_S318R] came out at 0.675

====

phosphorylation enrichment values, listed per item
System: c-Abl (mouse)
procedure.text: phosphorylation enrichment, bacterial display (enrichment ratio); higher = better substrate or ligand; peptides without Tyr show the background
Keep it simple and answer with nothing but the number.

Solved cases below.
{"record.sequence": "NTGDYYDLYGG [PTPN11_Y63]", "assay.endpoint": "phosphorylation enrichment", "observed": 1.02}
{"record.sequence": "GESLTYASTTF [C1orf162_Y120]", "assay.endpoint": "phosphorylation enrichment", "observed": 1.19}
{"record.sequence": "NQILPYIKELV [PPP2R1B_Y341]", "assay.endpoint": "phosphorylation enrichment", "observed": 0.72}
{"record.sequence": "GEFHVYRHLRW [PRKRIP1_Y82_R87W]", "assay.endpoint": "phosphorylation enrichment", "observed": 0.723}

Reported phosphorylation enrichment of ILTLKYPIEHG [ACTA1_Y71] : 0.57

Given item IVRSRYEDLED [VHL_Y185_L184R] , the value recorded as its phosphorylation enrichment is 0.968

====

We begin with a simple list: items and their reported phosphorylation enrichment.
experimental.target: Fes (UniProt P07332)
Sequence (P07332 whole entry, looked up): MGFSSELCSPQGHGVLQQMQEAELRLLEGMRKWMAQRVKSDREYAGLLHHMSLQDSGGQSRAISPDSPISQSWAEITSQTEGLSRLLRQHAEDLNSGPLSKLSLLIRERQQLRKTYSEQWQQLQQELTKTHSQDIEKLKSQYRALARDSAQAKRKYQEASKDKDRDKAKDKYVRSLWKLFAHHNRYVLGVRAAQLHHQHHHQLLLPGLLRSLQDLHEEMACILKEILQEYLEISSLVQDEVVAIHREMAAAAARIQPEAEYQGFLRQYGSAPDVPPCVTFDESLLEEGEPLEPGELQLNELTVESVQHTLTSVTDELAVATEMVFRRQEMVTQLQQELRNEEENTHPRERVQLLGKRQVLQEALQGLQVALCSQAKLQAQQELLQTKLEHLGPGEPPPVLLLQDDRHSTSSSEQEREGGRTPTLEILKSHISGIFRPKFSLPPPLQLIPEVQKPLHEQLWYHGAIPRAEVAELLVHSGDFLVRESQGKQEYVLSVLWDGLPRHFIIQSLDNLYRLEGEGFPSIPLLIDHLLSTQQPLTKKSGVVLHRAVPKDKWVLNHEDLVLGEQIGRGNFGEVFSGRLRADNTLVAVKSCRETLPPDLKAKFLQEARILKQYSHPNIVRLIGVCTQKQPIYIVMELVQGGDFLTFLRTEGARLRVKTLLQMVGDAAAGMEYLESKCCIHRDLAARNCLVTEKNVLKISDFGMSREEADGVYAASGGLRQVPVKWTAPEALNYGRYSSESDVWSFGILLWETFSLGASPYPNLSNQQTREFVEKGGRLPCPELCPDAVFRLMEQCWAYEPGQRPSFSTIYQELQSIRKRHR
procedure.text: phosphorylation enrichment, bacterial display (enrichment ratio); higher = better substrate or ligand; peptides without Tyr show the background
Give the figure by itself; no unit, no explanation.

{"record.sequence": "QFRFIYMAVQH [PTPN11_Y515_YF]", "experimental.target": "Fes (UniProt P07332)", "phosphorylation enrichment": 2.52}

The value of phosphorylation enrichment measured for the sequence GTQCSYLLSRK [UGT3A1_Y123] turned out to be 0.676

get_value(item= TTGGFYSFGGG [KRT24_Y120_A115T_YF] , readout=phosphorylation enrichment) returns 0.847

Please fill in: phosphorylation enrichment reported for DDDPEYRKFLE [UPF3B_Y160] = 1.22

====

experimental.target: EPHB1 (UniProt P54762)
Sequence (P54762 whole entry, looked up): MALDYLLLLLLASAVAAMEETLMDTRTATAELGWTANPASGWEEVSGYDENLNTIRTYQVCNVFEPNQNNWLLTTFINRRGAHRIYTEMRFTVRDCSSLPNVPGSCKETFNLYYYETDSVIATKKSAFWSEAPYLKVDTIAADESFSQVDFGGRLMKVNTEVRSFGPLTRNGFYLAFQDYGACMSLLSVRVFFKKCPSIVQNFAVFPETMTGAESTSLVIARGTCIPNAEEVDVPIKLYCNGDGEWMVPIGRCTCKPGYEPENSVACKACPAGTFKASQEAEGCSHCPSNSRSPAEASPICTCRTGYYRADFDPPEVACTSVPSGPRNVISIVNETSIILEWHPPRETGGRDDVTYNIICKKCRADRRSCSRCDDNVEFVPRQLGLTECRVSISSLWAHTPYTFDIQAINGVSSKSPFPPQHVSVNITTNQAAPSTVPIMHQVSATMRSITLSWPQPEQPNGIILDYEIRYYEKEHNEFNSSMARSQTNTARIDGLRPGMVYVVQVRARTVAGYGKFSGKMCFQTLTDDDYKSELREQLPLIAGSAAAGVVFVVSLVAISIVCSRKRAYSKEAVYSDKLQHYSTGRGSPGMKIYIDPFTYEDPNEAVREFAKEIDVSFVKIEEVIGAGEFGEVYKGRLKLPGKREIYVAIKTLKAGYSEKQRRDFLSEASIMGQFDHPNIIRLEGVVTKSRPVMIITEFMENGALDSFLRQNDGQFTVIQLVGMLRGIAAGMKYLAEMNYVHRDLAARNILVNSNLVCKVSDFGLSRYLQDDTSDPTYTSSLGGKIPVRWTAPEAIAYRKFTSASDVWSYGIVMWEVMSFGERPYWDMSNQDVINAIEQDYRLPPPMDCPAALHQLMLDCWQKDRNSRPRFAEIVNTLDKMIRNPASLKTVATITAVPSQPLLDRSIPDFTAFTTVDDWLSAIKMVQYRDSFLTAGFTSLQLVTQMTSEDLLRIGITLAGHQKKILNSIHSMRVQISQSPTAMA
procedure.text: phosphorylation enrichment, bacterial display (enrichment ratio); higher = better substrate or ligand; peptides without Tyr show the background
Rule: MET for phosphorylation enrichment not less than 0.6, NOT MET for anything less.

{"record.sequence": "GRQGIYTKNER [GPR143_Y231_E233K]", "experimental.target": "EPHB1 (UniProt P54762)", "class": "NOT MET"}
{"record.sequence": "FLAVGYHKPFI [IDS_Y225_H229Y_YF]", "experimental.target": "EPHB1 (UniProt P54762)", "class": "NOT MET"}
{"record.sequence": "PEADKYCLTFA [FGG_Y300_R301C_YF]", "experimental.target": "EPHB1 (UniProt P54762)", "class": "MET"}
{"record.sequence": "VCHELYNAIRD [PBRM1_Y54_T56A]", "experimental.target": "EPHB1 (UniProt P54762)", "class": "NOT MET"}
{"record.sequence": "GVASDYKCVDP [VPS13B_Y1991_I1994V]", "experimental.target": "EPHB1 (UniProt P54762)", "class": "MET"}

Q: Entry REVVNYVQKRN [RMI1_Y450] : is its phosphorylation enrichment no less than 0.6?
A: MET

Q: // inclusive: phosphorylation enrichment at least 0.6? input: GFDHSYFFIAT [ESD_Y262_YF]
A: MET

Q: Record FRDMDYRSFPR [RBM10_Y41_YF] ; criterion: phosphorylation enrichment no lower than 0.6. Met?
A: NOT MET
